Procedure Details: NCI Yeast Anticancer Drug Screen. Data for the cln2 rad14 strain (AID 165);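 further: 0% = growth equal to vehicle treated cultures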
Condition Set: S. cerevisiae cln2 rad14 strain, at 5.0 µM (retest, dose inferred, filed as 0.5), stronger effect = higher value
The panel holds about 79,000 compounds, 15% with a hit somewhere; the sample as a whole holds those more often.
Readout Label: growth inhibition (%)
Express the result in % but write the number alone.

Q. What measured growth inhibition goes with "c1ccc([CH2][Sn]([CH2]c2ccccc2)([S]c2cccc3cccnc23)[S]c2cccc3cccnc23)cc1" ?
A. 17

Q. What measured growth inhibition goes with "O=c1c(Cl)c(Cl)oc(Cl)c1Cl" ?
A. 3

Q. What measured growth inhibition goes with CC(C)CCCC(C)C1CCC2C3C=CC4=CCCCC4(C)C3CCC12C (stereo unspecified) ?
A. -5

Q. What measured growth inhibition goes with "CN(C)C(N)=NC#N" ?
A. 20

Q. What measured growth inhibition goes with "N#CC1(C#N)C(C#N)(C#N)C12CCC2" ?
A. 0

Q. What measured growth inhibition goes with CC1(C(Cl)(Cl)Cl)C=CC(=NO)C=C1 (stereo unspecified) ?
A. 3

Q. What measured growth inhibition goes with COc1ccc(Cc2c(-c3ccc(C)cc3)n[nH]c(=O)c2C2C(=O)N(c3ccccc3)N=C2c2ccccc2)cc1 (stereo unspecified) ?
A. 98

Q. What measured growth inhibition goes with "CCCNC(=O)c1ccccc1" ?
A. -6

Q. What measured growth inhibition goes with Cc1ccc(C(CN(C)C)C(=O)c2ccccc2)cc1C (stereo unspecified) ?
A. -3

Q. What measured growth inhibition goes with CC(C)N1C(=O)c2ccccc2S1(Cl)c1ccccc1 (stereo unspecified) ?
A. -2

Q. What measured growth inhibition goes with COc1cccc2c1C(=O)c1c(O)c3c(c(O)c1C2=O)C[C@@](O)(C(=O)CO)C[C@@H]3OC1CC(N(C)C)C(O)C(C)O1 (stereo partly specified) ?
A. 96

Q. What measured growth inhibition goes with NCC(CS)C(=O)NC(CS)C(=O)NC(CS)C(=O)NCCNc1ccc(NCCNC(=O)C(CS)NC(=O)C(CS)NC(=O)C(CN)CS)c2c1C(=O)c1c(O)ccc(O)c1C2=O (stereo unspecified) ?
A. 23

Q. What measured growth inhibition goes with COc1cccc2c1C1c3ccccc3Sc3cccc(c31)O2 (stereo unspecified) ?
A. 1

Q. What measured growth inhibition goes with C/C(=C\N1CCN(c2ccc(Cl)cc2)C(C)C1)C(=O)c1ccccc1 (stereo unspecified) ?
A. -2

Q. What measured growth inhibition goes with "CCN(CC)C(C)(C)C(=O)/C=C/c1ccc(Cl)cc1" ?
A. -9

Q. What measured growth inhibition goes with "Cc1ccc(OS(=O)(=O)c2ccc(Br)cc2)cc1" ?
A. 9

Q. What measured growth inhibition goes with Oc1ccc2c(c1O)/C(=C/C=NCC1(O)OCC(O)C(O)C1O)C=N2 (stereo unspecified) ?
A. 0

Q. What measured growth inhibition goes with "O=C([O][Sb]([O]C(=O)C(Cl)(Cl)Cl)([c]1ccccc1)([c]1ccccc1)[c]1ccccc1)C(Cl)(Cl)Cl" ?
A. -5

Q. What measured growth inhibition goes with "CCCCCCCCCc1cccc(N2C(N)=NC(N)=NC2(C)C)c1" ?
A. 99

Q. What measured growth inhibition goes with "COc1ccc(/C(Cl)=C(/c2ccc(O)cc2)c2ccc(OCCN(C)C)cc2)cc1" ?
A. 34

Q. What measured growth inhibition goes with "CCCCCCCCCCCC#CCCCCC(=O)O" ?
A. 27

Q. What measured growth inhibition goes with "Cc1cc(O)c(C)c(C)c1N=Nc1ccccc1" ?
A. -63

Q. What measured growth inhibition goes with "Nc1nc(-c2ccccc2)nc(Cl)c1I" ?
A. 3

Q. What measured growth inhibition goes with "CCN(CC)CCOc1c(I)cc(I)cc1I" ?
A. 7

Q. What measured growth inhibition goes with "O=C(/C(=C\I)c1ccccc1)c1ccccc1" ?
A. -6

Q. What measured growth inhibition goes with "COc1ccccc1/C=C(\NC(=O)c1ccccc1)c1nc2ccccc2[nH]1" ?
A. 16

Q. What measured growth inhibition goes with C=C(CN(C)C)C(=O)c1ccc(OC2OC(COC(C)=O)C(OC(C)=O)C(OC(C)=O)C2OC(C)=O)cc1 (stereo unspecified) ?
A. 7

Q. What measured growth inhibition goes with "C/C(=N\OC(=O)c1ccccc1)[N+](=O)[O-]" ?
A. -27

Q. What measured growth inhibition goes with "O=C(CNS(=O)(=O)Cc1ccccc1)NCC(=O)NNc1ccccc1" ?
A. 12

Q. What measured growth inhibition goes with O=S1Nc2ccccc2S1 (stereo unspecified) ?
A. -8

Q. What measured growth inhibition goes with CCOC(=O)C(=O)CC1=Nc2ccccc2SC(c2cccc(C)c2)C1 (stereo unspecified) ?
A. -2

Q. What measured growth inhibition goes with Cc1ccc(S(=O)(=O)OC(C=O)C(O)C(O)COC(c2ccccc2)(c2ccccc2)c2ccccc2)cc1 (stereo unspecified) ?
A. 99

Q. What measured growth inhibition goes with "COC1=C(NC(C)=O)C(=O)c2nc(-c3nc(C(=O)O)c(C)c(-c4ccc(OC)c(OC)c4O)c3N)ccc2C1=O" ?
A. 38

Q. What measured growth inhibition goes with "N#CSc1ccc2nc(NCO)sc2c1" ?
A. -9

Q. What measured growth inhibition goes with "CCNc1nc(C(F)(F)F)nc2nc[nH]c12" ?
A. -5

Q. What measured growth inhibition goes with "COC(=O)c1cn(NS(=O)(=O)c2ccc(OC)cc2)cc1C(=O)OC" ?
A. -1

Q. What measured growth inhibition goes with "Brc1ccc(-c2c3ccccc3cc3c2ccc2ccccc23)cc1" ?
A. -2

Q. What measured growth inhibition goes with "C/C(=N/NC(=S)Nc1cccc(C)c1)c1ccccn1" ?
A. 94

Q. What measured growth inhibition goes with "Oc1c(Cl)cc(Cl)cc1Br" ?
A. 0

Q. What measured growth inhibition goes with "CCOC(=O)N1CCN(CCCCCCOc2ccc(C(C)(C)C)cc2)CC1" ?
A. 12

Q. What measured growth inhibition goes with "O=[N+]([O-])c1ccc2nc(-c3ccc(Cl)cc3)[nH]c2c1" ?
A. -6

Q. What measured growth inhibition goes with "CCSc1nc2ccc(N3C(=O)C=CC3=O)cc2s1" ?
A. 34

Q. What measured growth inhibition goes with "O=C(OCc1ccccc1CN1CCOCC1)c1cccc(Br)c1" ?
A. -5

Q. What measured growth inhibition goes with Cc1ccc(/C=C2\CCCC(CN3CCCCC3)C2=O)cc1 (stereo unspecified) ?
A. 45

Q. What measured growth inhibition goes with CCCCCCCCCCCCC1N=C(N)N2CCCC2=C1C(=O)OC (stereo unspecified) ?
A. 100

Q. What measured growth inhibition goes with C/C=C/C(=O)NCC(C(C)C)/[N+]([O-])=N/O (stereo unspecified) ?
A. 80
